Just for reference, patent EP4768485A1 is where these values come from.

Test: Pharmacokinetic study in rats
Type: in vivo, Sprague-Dawley (SD) rats
Conditions: female, Sprague-Dawley, rat, oral gavage, 10 mg/Kg, plasma
endpoint: Cmax (ng/mL)
Please state the figure in ng/mL; there is no need to write the unit.

Cmax in this record for Cc1c(CN(C)C(=O)/C=C/c2cnc3c(c2)CCC(=O)N3COP(=O)(O)O)oc2ccccc12 : 2210

----------
Test: Pharmacokinetic study in rats
Type: in vivo, Sprague-Dawley (SD) rats
Settings: female, Sprague-Dawley, rat, in vivo, oral gavage, 15 mg/Kg, plasma
endpoint: Tmax (h)
Please state the figure in h; there is no need to write the unit.

Tmax in this record for Cc1c(CN(C)C(=O)/C=C/c2cnc3c(c2)C2CC2(N)C(=O)N3)oc2c(C)cccc12 (stereo not shown) : 1.5
